Assign MIC to each entry below.
system: Haemophilus influenzae; assay: Antimicrobial activity against Haemophilus influenzae ATCC 31517 MMSA; type: functional

compound | MIC
CCCCC/C(NC(C)CCCN(CC)CC)=C1\C(=O)C(CCSC)N(C(=O)CC(C)CC(C)(C)C)C1=O (configuration not stated) | > 64 µg/mL
CCCCCC/C(=C1/C(=O)N2[C@@H](C(C)(C)C)OC[C@]2(C(=O)OC)C1=O)N1CCCCC1 | > 32 µg/mL
CCCCCCC/C=C/C(=O)N1C(=O)/C(=C(\C)Nc2ccc(N3CCOCC3)cc2)C(=O)C1CC(C)C (configuration not stated) | > 32 µg/mL
CCCCCCCCCCC/C(NCCCOC(C)C)=C1\C(=O)CNC1=O | > 64 µg/mL
CCCCCCCCCCC/C(Nc1ccc(N)cc1)=C1\C(=O)CN(CCCCCC)C1=O | > 32 µg/mL
CCOC(=O)[C@]12CO[C@H](C(C)(C)C)N1C(=O)/C(=C(/CC13CC4CC(CC(C4)C1)C3)NCC(C)(C)CN(C)C)C2=O | > 32 µg/mL

Count: 6. Required value per item: MIC.
1. CCCCCCCCCCC/C(Nc1ccc(NC(=O)COCC(=O)O)cc1)=C1\C(=O)CN(CCCCCC)C1=O
2. CC(=O)NC[C@H]1CN(c2ccc(N3CCOCC3)c(F)c2)C(=O)O1
3. CCCC(=O)N1CC(=O)/C(=C(\CCCCc2ccccc2)NC2CC(C)(C)N(C)C(C)(C)C2)C1=O
4. COC(=O)[C@@]12CO[C@@H](C(C)(C)C)N1C(=O)/C(=C(\C)NCC1CCC3CC1C3(C)C)C2=O (some centres not stated)
5. CCOC(=O)[C@]12CO[C@H](C(C)(C)C)N1C(=O)/C(=C(\C)NCc1cccc(CN3CCC(C)CC3)c1)C2=O
6. COC(=O)[C@@]12CO[C@@H](C(C)(C)C)N1C(=O)/C(=C(\C)NC13CC4CC(CC(C4)C1)C3)C2=O

Output line:
["> 64 µg/mL", "16 µg/mL", "> 32 µg/mL", "> 32 µg/mL", "> 32 µg/mL", "> 64 µg/mL"]

---

Assign MIC to each entry below.
test system: Staphylococcus aureus; assay: Antimicrobial activity against Staphylococcus aureus Oxford; assay type: functional

Count: 2. Required value per item: MIC.
1. CCCCCCCCCCC/C(Nc1ccc(N)cc1)=C1\C(=O)CN(CCCCCC)C1=O
2. CCCCCCC(=O)N1CC(=O)/C(=C(\CCCOc2ccccc2)NCCCOC(C)C)C1=O

Output line:
1: > 32 µg/mL; 2: > 32 µg/mL

Count: 3. Required value per item: MIC.
1. CCOC(=O)[C@]12CO[C@H](C(C)(C)C)N1C(=O)/C(=C(\C)Nc1ncc(Cl)cn1)C2=O
2. CSCCC1C(=O)/C(=C(\CC23CC4CC(CC(C4)C2)C3)NCC(C)(C)CN(C)C)C(=O)N1C(C)=O (stereo not drawn)
3. CCCCCC/C(=C1/C(=O)N2[C@@H](C(C)(C)C)OC[C@]2(C(=O)OC)C1=O)N1CCCCC1

Output line:
["> 32 µg/mL", "> 32 µg/mL", "> 32 µg/mL"]

Count: 3. Required value per item: MIC.
1. CCCCCCCCCCC/C(Nc1ccc(NC(=O)COCC(=O)O)cc1)=C1\C(=O)CN(CCCCCC)C1=O
2. CCCCC/C(NC(C)CCCN(CC)CC)=C1\C(=O)C(CCSC)N(C(=O)CC(C)CC(C)(C)C)C1=O (stereo not drawn)
3. CCCCCCC/C=C/C(=O)N1C(=O)/C(=C(\C)Nc2ccc(N3CCOCC3)cc2)C(=O)C1CC(C)C (stereo not drawn)

Output line:
1: > 64 µg/mL; 2: 8 µg/mL; 3: > 32 µg/mL
